compounds and their reported melting point

Recorded results for 2 compounds are shown here.
CCOc1ccc(C2=NN(c3ccc(C(=O)N/N=C/c4ccc(OC)cc4)cc3)C(c3ccc4ccccc4c3)C2)cc1 (centres unmarked)	237 to 239 °C
COc1ccc(/C=N/NC(=O)c2ccc(N3N=C(c4ccc(Cl)cc4)CC3c3ccc4ccccc4c3)cc2)cc1 (centres unmarked)	237 to 239 °C

QUERY: Reported melting point for COc1cccc(/C=N/NC(=O)c2ccc(N3N=C(c4cccc(F)c4)CC3c3ccc4ccccc4c3)cc2)c1 (centres unmarked) : what is it?
RESULT: 241 to 243 °C

QUERY: Reported melting point for COc1ccc(/C=N/NC(=O)c2ccc(N3N=C(c4cccc(Cl)c4)CC3c3ccc4ccccc4c3)cc2)cc1 (centres unmarked) : what is it?
RESULT: 241 to 243 °C

QUERY: Reported melting point for COc1ccc(/C=N/NC(=O)c2ccc(N3N=C(c4ccc(F)cc4)CC3c3ccc4ccccc4c3)cc2)cc1 (centres unmarked) : what is it?
RESULT: 236 to 238 °C

QUERY: Reported melting point for COc1ccc(/C=N/NC(=O)c2ccc(N3N=C(c4cc(OC)c(OC)c(OC)c4)CC3c3ccc4ccccc4c3)cc2)cc1 (centres unmarked) : what is it?
RESULT: 237 to 239 °C

QUERY: Reported melting point for COc1cccc(/C=N/NC(=O)c2ccc(N3N=C(c4ccccc4F)CC3c3ccc4ccccc4c3)cc2)c1 (centres unmarked) : what is it?
RESULT: 235 to 237 °C
